# measured-on: DNA polymerase delta catalytic subunit (Homo sapiens)
# Sequence (P28340 whole entry): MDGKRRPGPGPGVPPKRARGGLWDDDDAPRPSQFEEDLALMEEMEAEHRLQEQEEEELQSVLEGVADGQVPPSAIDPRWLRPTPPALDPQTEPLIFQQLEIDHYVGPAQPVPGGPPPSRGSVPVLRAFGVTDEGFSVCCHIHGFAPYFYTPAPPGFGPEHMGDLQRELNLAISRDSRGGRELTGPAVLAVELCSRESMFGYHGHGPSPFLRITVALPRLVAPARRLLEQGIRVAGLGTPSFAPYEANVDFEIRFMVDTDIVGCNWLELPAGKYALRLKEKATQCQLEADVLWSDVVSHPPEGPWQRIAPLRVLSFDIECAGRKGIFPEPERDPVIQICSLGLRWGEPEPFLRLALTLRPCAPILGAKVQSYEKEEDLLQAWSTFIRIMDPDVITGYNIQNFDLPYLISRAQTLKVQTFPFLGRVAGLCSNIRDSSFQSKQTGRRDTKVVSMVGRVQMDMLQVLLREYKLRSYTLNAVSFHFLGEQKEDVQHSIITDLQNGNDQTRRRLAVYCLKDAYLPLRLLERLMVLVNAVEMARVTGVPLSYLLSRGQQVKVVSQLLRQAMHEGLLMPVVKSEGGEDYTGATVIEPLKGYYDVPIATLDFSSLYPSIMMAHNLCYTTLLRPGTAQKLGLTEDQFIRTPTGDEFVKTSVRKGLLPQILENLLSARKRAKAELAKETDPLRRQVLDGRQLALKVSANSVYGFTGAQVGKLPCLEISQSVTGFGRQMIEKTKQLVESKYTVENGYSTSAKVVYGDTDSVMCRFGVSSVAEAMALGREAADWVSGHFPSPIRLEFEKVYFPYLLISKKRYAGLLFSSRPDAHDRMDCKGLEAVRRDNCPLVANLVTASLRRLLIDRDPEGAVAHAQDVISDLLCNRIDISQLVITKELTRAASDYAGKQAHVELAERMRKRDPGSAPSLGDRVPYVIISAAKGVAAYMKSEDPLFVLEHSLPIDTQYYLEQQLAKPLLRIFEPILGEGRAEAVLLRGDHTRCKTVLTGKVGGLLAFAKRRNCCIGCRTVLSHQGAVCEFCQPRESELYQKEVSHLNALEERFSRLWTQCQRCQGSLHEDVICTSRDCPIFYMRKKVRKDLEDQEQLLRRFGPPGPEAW
# method-description: Inhibition of human delta DNA polymerase (95 uL) activity in a solution containg […] HEPES (pH 7.5) upon incubation for 12 minutes at 26 degrees C with the compound dissolved in DMSO
pIC50: −log10 of the molar value.
measured-property: pIC50

> print(dat)
                                   molecule  measured.property  result
1               O=C(O)P(=O)(O)O [FOSCARNET]              pIC50  < 4.70
2  C[C@@]1(CO)[C@H](O)CC[C@@]2(C)[C@H]1CC[C@H]1C[C@@H]3C[C@@]12CC[C@]3(O)CO [APHIDICOLIN]              pIC50  < 4.40
3  O=C(NCc1ccc(Cl)cc1)c1cnc2ccc(CCCO)cc2c1O              pIC50  < 4.40
4  Cn1cc(C(=O)NCc2ccc(Cl)cc2)c(=O)c2cc(CN3CCOCC3)ccc21              pIC50  < 4.40
5  Cn1cc(C(=O)NCc2ccc(Cl)cc2)c(=O)c2cc(CN3CCOCC3)sc21              pIC50  < 4.40
